target_entity: mouse 11β-HSD1 (Mus musculus, UniProt P50172)
Construct: The obtained PCR products of about 0.9 kbp, 1.2 kbp, and 0.9 kbp were subcloned into an expression vector pcDNA3.1+/Zeo; expressed in transfected cells
Sequence (P50172 whole entry): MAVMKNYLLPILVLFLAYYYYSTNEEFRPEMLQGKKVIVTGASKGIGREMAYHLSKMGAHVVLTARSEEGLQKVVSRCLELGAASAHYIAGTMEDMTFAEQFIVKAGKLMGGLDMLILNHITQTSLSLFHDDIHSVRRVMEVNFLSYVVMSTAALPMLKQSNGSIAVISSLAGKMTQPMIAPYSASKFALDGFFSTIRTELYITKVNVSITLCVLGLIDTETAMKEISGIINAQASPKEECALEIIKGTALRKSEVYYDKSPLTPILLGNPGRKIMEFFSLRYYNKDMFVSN
procedure_text: Enzyme inhibitory activity, mouse 11β-HSD1 (lysate of stably expressing CHO-K1 cells, cortisol by competitive ELISA)
Type: biochemical
stated_conditions: Table 2; mouse 11β-HSD1, cell lysate, 37° C. for 1 hour; read-out: m HSD1 in vitro assay (IC50 uM)
parameter: IC50 (µM)

Sample answers from the record:
CC1(C)C(=O)N(C2CCCCCCC2)N1Cc1ccc(F)cc1Cl    0.14
CC1(C)C(=O)N(C2C3CC4CC(C3)CC2C4)N1Cc1ccc(F)cc1 (stereo not drawn)    0.084
Cc1c(F)cccc1C(=O)N1N(C2C3CC4CC(C3)CC2C4)C(=O)C1(C)C (stereo not drawn)    0.15
CC1(C)C(=O)N(C2C3CC4CC(C3)CC2C4)N1Cc1ccccc1Cl (stereo not drawn)    0.094
CC1(C)C(=O)N([C@H]2C3CC4CC2C[C@](Cl)(C4)C3)N1c1cccc2ccccc12    0.075

(1) CC1(C)C(=O)N(C2C3CC4CC(C3)CC2C4)N1Cc1cccc(Br)c1 (stereo not drawn)
(2) CC1(C)C(=O)N(C2CC3CCC2C3)N1Cc1cccc(Cl)c1Cl (stereo not drawn)
Query string: Recorded IC50 values differ for 1 and 2 ; which one is higher? Pick one; state its label.
Result string: 2
(2: 0.36 µM, 1: 0.086 µM)

(A) CC1(C)C(=O)N(C2C3CC4CC(C3)CC2C4)N1C(=O)c1ccc2c(c1)OCO2 (stereo not drawn)
(B) CC1(C)C(=O)N(C2C3CC4CC(C3)CC2C4)N1Cc1cccc(F)c1F (stereo not drawn)
Query string: Of A and B , which carries the smaller reported IC50 figure? Pick one; state its label.
Result string: A
(A: 0.11 µM, B: 0.27 µM)
